// provenance: patent US20190337978A1

I'd be grateful if you could share measured solubility for these entries.
assay: physchem; conditions: 25 °C, organic solvent or mixture, thermodynamic from solid
Answers are plain numbers, in mg/mL.

[[record]]
compound = "NC(=O)c1cccnc1 [Nicotinamide]"
recorded_number = 46.5


I'd like to know its solubility. The compound in question is CC(=O)Oc1ccccc1C(=O)O [Aspirin] 90
